Values were extracted from PubChem BioAssay (NCI).

- System: SK-MEL-5 melanoma
- METHOD_NOTES: NCI tumour cell line growth inhibition, 48 h
PROPERTY_LABEL: TGI

{"COMPOUND": "C=CCNC(=S)/N=C\\C(C(=O)OCC)=C(/O)C(=O)OCC", "TGI": "> 100 µM"}
{"COMPOUND": "Nc1ccc(C(=O)N/C(=C\\C=C\\c2ccco2)c2nc3c4c(ccc3[nH]2)C(=O)c2ccccc2C4=O)cc1", "TGI": "> 100 µM"}
{"COMPOUND": "CCn1nc(-c2ccc(C(=O)OC)cc2)nc2c(=O)n(C)c(=O)nc1-2", "TGI": "0.26 µM"}
{"COMPOUND": "Cc1ccc(C2C3Cc4ccccc4C3=NN2c2ccc(S(=O)(=O)NC(=O)NC3CCCCC3)cc2)cc1 (configuration not stated)", "TGI": "30.3 µM"}
{"COMPOUND": "Cc1nc2ccc(Cl)cc2c(Cl)c1CCCl", "TGI": "> 100 µM"}

Look up TGI for this compound: O=S(=O)(SCCCCSS(=O)(=O)c1ccc(Cl)cc1)c1ccc(Cl)cc1
30.5 µM

Now try COc1ccc(NC(=S)Nc2ccccc2)cc1 .
> 100 µM

Now try O=C1OC(c2ccccc2)=N/C1=C\c1ccc(Br)cc1 .
> 100 µM

###

Collected TGI values appear next to each entry.
- System: T-47D breast
- METHOD_NOTES: NCI tumour cell line growth inhibition, 48 h

{"COMPOUND": "Nc1nc(N)c2ncn(-c3ccc(Br)cc3)c2n1", "PROPERTY_LABEL": "TGI", "OBSERVED_RESULT": "> 100 µM"}

# ---- query compound ----
Look up TGI for this compound: Cc1ccc(NCCN(C)C)c2c(=O)c3cc(O)ccc3oc12
31.5 µM

###

- System: MDA-MB-435
- METHOD_NOTES: NCI tumour cell line growth inhibition, 48 h
Where a SMILES comes first, the peptide text is derived from it. [ ]: non-standard residue; d: D form. The star is where a group is joined. ξ: configuration not given here. ξD = NC(CC(=O)O)C(=O)O; Boc = CC(C)(C)OC(=O)*; Aib = CC(C)(N)C(=O)O; OtBu = CC(C)(C)O*
PROPERTY_LABEL: TGI

Examples from the recorded data:
{"COMPOUND": "COc1ccc2cc1Oc1ccc(cc1)CC1c3cc(OC)c(cc3CCN1C)Oc1c(OC)c(OC)cc3c1C(C2)N(C)CC3 (centres undefined)", "TGI": "26.2 µM"}
{"COMPOUND": "COC(=O)C(C)(C)NC(=O)C(C)(C)NC(=O)C(CC(=O)OC(C)(C)C)NC(=O)OC(C)(C)C (centres undefined) (Boc-[ξD](OtBu)-[Aib]-[Aib]-OMe)", "TGI": "> 100 µM"}

Look up TGI for this compound: N#Cc1cnc(=O)n(C2CC(O)C(CO)O2)c1 (centres undefined)
> 100 µM

Now try CC[C@H](C)[C@H]1NC(=O)[C@@H](NC(=O)[C@@H](CC(C)C)N(C)C(=O)C2CCCN2C(=O)[C@H](C)O)[C@@H](C)OC(=O)[C@@H]2Cc3ccccc3CN2C(=O)[C@@H]2CCCN2C(=O)[C@H](CC(C)C)NC(=O)[C@@H](C)C(=O)[C@H](C(C)C)OC(=O)C[C@@H]1O (some centres undefined) .
8.1 µM
